Where these numbers come from: ChEMBL document CHEMBL4765483

biological target: Adenosine receptor A2a (Homo sapiens) (UniProt P29274); assay: Displacement of [3H]ZM2421385 from adenosine A2A receptor expressed in human HeLa cell membranes at 1 uM incubated for 30 mins by scintillation counting method; conditions: Cell membrane
Sequence (P29274 whole entry): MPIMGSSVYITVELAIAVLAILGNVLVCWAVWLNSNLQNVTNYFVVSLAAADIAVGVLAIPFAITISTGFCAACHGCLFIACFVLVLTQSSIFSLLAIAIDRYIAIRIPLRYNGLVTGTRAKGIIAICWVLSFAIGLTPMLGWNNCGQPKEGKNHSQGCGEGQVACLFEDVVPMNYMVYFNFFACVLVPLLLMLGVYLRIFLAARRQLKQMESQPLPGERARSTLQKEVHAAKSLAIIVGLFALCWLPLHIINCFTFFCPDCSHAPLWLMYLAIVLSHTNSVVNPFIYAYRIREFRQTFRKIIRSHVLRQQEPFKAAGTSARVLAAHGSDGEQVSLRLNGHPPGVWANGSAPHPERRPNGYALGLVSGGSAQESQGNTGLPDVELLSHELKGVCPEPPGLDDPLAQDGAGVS
OUTCOME_MEASURE: inhibition (%)

Reference set (5 entries):
In [3]: df
Out[3]:
                                   compound  outcome_measure  uom  measured
0  CC1=C(C(=O)OC2CCCC2)C(c2ccsc2)NC(=O)N1 (racemic)       inhibition    %         1
1  CCCOC(=O)C1=C(C)NC(=S)NC1c1ccsc1 (racemic)       inhibition    %         1
2  CC1=C(C(=O)OC(C)(C)C)C(c2ccsc2)NC(=O)N1 (racemic)       inhibition    %         5
3  CCN(CC)C(=O)C1=C(C)NC(=O)NC1c1ccoc1 (racemic)       inhibition    %         6
4  CCCC(=O)C1=C(C)NC(=O)NC1c1ccsc1 (racemic)       inhibition    %        11

P. CC1=C(C(=O)OC2CCC2)C(c2ccsc2)NC(=O)N1 (racemic)
Q. CC1=C(C(=O)OCC(C)C)C(c2ccsc2)NC(=O)N1C (racemic)
R. CCN(CC)C(=O)C1=C(C)NC(=O)NC1c1cccs1 (racemic)
S. CC1=C(C(=O)OCC2CC2)C(c2cccs2)NC(=O)N1 (racemic)
T. CCOP(=O)(OCC)C1=C(C)NC(=O)NC1c1ccsc1 (racemic)
Ascending sort, inhibition. Write the labels out in the order the request specifies.
Q, T, R, S, P

----------
biological target: Adenosine receptor A2a (Homo sapiens); experiment: Displacement of [3H]ZM2421385 from adenosine A2A receptor expressed in human HeLa cell membranes at 1 uM incubated for 30 mins by scintillation counting method; details: Cell membrane
OUTCOME_MEASURE: inhibition (%)

Some entries whose results are on file:
In [3]: df
Out[3]:
                                   compound  uom  measured
0  CC1=C(C(=O)OCC(C)C)C(c2ccoc2)NC(=O)N1C (racemic)    %         4
1  CC1=C(C(=O)OC2CCC2)C(c2ccoc2)NC(=O)N1 (racemic)    %        32
2  CC1=C(C(N)=O)C(c2ccoc2)NC(=O)N1 (racemic)    %         3
3  COC(=O)C1=C(C)NC(=S)NC1c1cccs1 (racemic)    %         1
4  CC1=C(C(=O)OCC(C)C)C(c2ccco2)NC(=S)N1 (racemic)    %        30

I. COC(=O)C1=C(C)N(C)C(=O)NC1c1ccsc1 (racemic)
II. CC1=C(C(=O)OCC(C)C)C(c2cccs2)NC(=O)N1C (racemic)
III. CC1=C(C(=O)OCC(C)C)C(c2ccoc2)NC(=O)N1 (racemic)
IV. CCOP(=O)(OCC)C1=C(C)NC(=O)NC1c1cccs1 (racemic)
V. COC(=O)C1=C(C)N=C(S)NC1c1ccco1 (racemic)
Please list these compounds in decreasing order of inhibition. Please express your ranking as an ordered list of the labels.
III, V, I, IV, II

A. CC(=O)C1=C(C)NC(=O)NC1c1ccoc1 (racemic)
B. CC1=C(C(=O)OC(C)(C)C)C(c2ccoc2)NC(=S)N1 (racemic)
// select label with min value of measured inhibition from [ A , B ] Lab note: record the label of whichever item you select.
A

a. CC1=C(C(=O)NC(C)C)C(c2ccco2)NC(=O)N1 (racemic)
b. CC(=O)C1=C(C)NC(=O)NC1c1cccs1 (racemic)
c. CCCC(=O)C1=C(C)NC(=O)NC1c1cccs1 (racemic)
d. CC1=C(C(=O)OCC(C)C)C(c2ccco2)NC(=O)N1C (racemic)
Sort the compounds on inhibition; start with the lowest figure. Reply: labels, ordered per the request.
a, b, d, c

a. CCOC(=O)C1=C(C)N(C)C(=O)NC1c1cccs1 (racemic)
b. CCCC(=O)C1=C(C)NC(=O)NC1c1ccoc1 (racemic)
c. CC1=C(C(=O)OCC(C)C)C(c2ccco2)NC(=O)N1 (racemic)
Rank ascending by inhibition. Reply with the item labels sorted in the order that was asked for.
a, b, c

----------
biological target: UniProt:P0DMS8; assay: Displacement of [3H]NECA from adenosine A3 receptor expressed in human HeLa cell membranes at 1 uM incubated for 180 mins by scintillation counting method; conditions: Cell membrane
Sequence (P0DMS8 whole entry): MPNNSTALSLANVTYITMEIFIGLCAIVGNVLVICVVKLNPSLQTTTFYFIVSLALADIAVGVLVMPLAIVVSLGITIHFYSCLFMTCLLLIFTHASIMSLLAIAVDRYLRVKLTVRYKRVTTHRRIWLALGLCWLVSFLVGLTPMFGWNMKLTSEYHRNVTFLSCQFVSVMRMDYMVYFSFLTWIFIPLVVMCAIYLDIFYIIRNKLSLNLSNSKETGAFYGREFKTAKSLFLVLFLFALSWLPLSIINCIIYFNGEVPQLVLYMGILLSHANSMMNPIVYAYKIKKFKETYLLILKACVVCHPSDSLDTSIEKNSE
OUTCOME_MEASURE: inhibition (%)

# example entries with known answers
>>> df
                                   compound  measured
0  COC(=O)C1=C(C)NC(=O)NC1c1ccoc1 (racemic)         2
1  CC1=C(C(=O)C2CC2)C(c2ccsc2)NC(=O)N1 (racemic)         1
2  CC1=C(C(=O)OC2CCCCC2)C(c2ccsc2)NC(=O)N1 (racemic)         1
3  CC1=C(C(=O)OC2CCCCC2)C(c2ccco2)NC(=O)N1 (racemic)         4
4  CC1=C(C(=O)OCc2ccccc2)C(c2ccsc2)NC(=O)N1 (racemic)        25

I. CC1=C(C(=O)OCc2ccccc2)C(c2ccoc2)NC(=O)N1C (racemic)
II. CC1=C(C(=O)OC2CCC2)C(c2ccoc2)NC(=O)N1 (racemic)
III. CC1=C(C(=O)OCc2ccccc2)C(c2ccco2)NC(=O)N1 (racemic)
IV. CCOC(=O)C1=C(C)N(C)C(=O)NC1c1cccs1 (racemic)
Sort (4 compounds) by inhibition: min first. Kindly provide the labels arranged according to the requested ordering.
II, IV, III, I

----------
molecular target: UniProt P0DMS8; assay: Displacement of [3H]NECA from adenosine A3 receptor expressed in human HeLa cell membranes at 1 uM incubated for 180 mins by scintillation counting method; details: Cell membrane
OUTCOME_MEASURE: inhibition (%)

Some entries whose results are on file:
>>> df
                                   compound  measured
0  COC(=O)C1=C(C)N(C)C(=O)NC1c1ccco1 (racemic)         9
1  CCC(C)OC(=O)C1=C(C)NC(=O)NC1c1ccoc1 (racemic)        11
2  CCCC(=O)C1=C(C)NC(=O)NC1c1ccsc1 (racemic)         1
3  CC1=C(C(=O)NC(C)C)C(c2cccs2)NC(=O)N1 (racemic)         1
4  CC1=C(C(=O)SC(C)C)C(c2ccsc2)NC(=O)N1 (racemic)         1

1. CCCC(=O)C1=C(C)NC(=O)NC1c1ccco1 (racemic)
2. CC1=C(C(=O)CC(C)C)C(c2cccs2)NC(=O)N1 (racemic)
3. CCCOC(=O)C1=C(C)N(C)C(=O)NC1c1ccsc1 (racemic)
4. CC1=C(C(=O)NC(C)C)C(c2ccoc2)NC(=O)N1 (racemic)
Order the records so the highest inhibition appears first and the lowest last. # output: labels, in the requested order
2, 3, 4, 1

----------
biological target: CYP3A4 (Homo sapiens); assay: Inhibition of CYP3A4 (unknown origin) expressed in insect cell microsomes at 1 uM in presence of BFC substrate by fluorescence based assay relative to control; type: ADME, Microsome; details: recombinant CYP3A4 expressed in insect cell microsomes, probe BFC
Sequence (P08684 whole entry): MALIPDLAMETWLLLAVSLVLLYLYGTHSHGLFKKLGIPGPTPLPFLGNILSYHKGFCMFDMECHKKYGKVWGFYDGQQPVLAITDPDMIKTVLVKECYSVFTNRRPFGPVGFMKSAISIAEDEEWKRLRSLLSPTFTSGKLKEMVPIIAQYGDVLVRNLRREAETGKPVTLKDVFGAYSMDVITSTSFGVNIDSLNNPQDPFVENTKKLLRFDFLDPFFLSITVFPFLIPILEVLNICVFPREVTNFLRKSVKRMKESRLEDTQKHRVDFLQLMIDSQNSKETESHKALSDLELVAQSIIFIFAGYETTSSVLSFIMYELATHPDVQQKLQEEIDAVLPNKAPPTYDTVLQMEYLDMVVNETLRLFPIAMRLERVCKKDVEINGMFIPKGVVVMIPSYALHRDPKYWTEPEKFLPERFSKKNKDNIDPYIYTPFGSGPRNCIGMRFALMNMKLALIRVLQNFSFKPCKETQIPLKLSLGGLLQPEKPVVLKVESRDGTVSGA
OUTCOME_MEASURE: inhibition at 1 µM (%)

P. CC1=C(C(=O)OC(C)C)C(c2ccco2)NC(=S)N1 (racemic)
Q. CCOC(=O)C1=C(C)NC(=O)NC1c1ccsc1 (racemic)
Given P and given Q , which shows the smaller recorded inhibition at 1 µM? Give the label under which the chosen entry appears.
P

----------
target: Adenosine receptor A1 (Homo sapiens); assay: Displacement of [3H]DPCPX from human adenosine A1 receptor expressed in CHO cell membranes at 1 uM incubated for 60 mins by scintillation counting method; conditions: Cell membrane
OUTCOME_MEASURE: inhibition (%)

Some entries whose results are on file:
In [3]: df
Out[3]:
                                   compound  outcome_measure  measured
0  CC1=C(C(=O)NC(C)C)C(c2ccco2)NC(=O)N1 (racemic)       inhibition         3
1  CCN(CC)C(=O)C1=C(C)NC(=O)NC1c1ccsc1 (racemic)       inhibition        11
2   CC(=O)C1=C(C)NC(=O)NC1c1cccs1 (racemic)       inhibition        11
3  CC1=C(C(=O)OC2CCC2)C(c2cccs2)NC(=O)N1 (racemic)       inhibition        24
4  CCOP(=O)(OCC)C1=C(C)NC(=O)NC1c1cccs1 (racemic)       inhibition         2

1. CC1=C(C(=O)SC(C)C)C(c2ccco2)NC(=O)N1 (racemic)
2. CC1=C(C(=O)CC(C)C)C(c2ccco2)NC(=O)N1 (racemic)
Which numeric inhibition is bigger, that of 1 or that of 2 ? Please respond with the label that marks your chosen entry.
2

I. CCC(CC)OC(=O)C1=C(C)NC(=O)NC1c1ccsc1 (racemic)
II. CCC(CC)OC(=O)C1=C(C)NC(=O)NC1c1ccco1 (racemic)
III. CCN(CC)C(=O)C1=C(C)NC(=O)NC1c1ccco1 (racemic)
Reorder: inhibition, max to min. List the labels, following the order given in the request.
I, III, II
(I: 22%, III: 11%, II: 2%)
